Measured IC50 accompanies every entry in the list below.
SYSTEM_UNDER_TEST: recombinant HCV NS5B (HCV RNA-dependent RNA polymerase) (Hepatitis C virus genotype 1b, UniProt P26663)
Sequence (P26663 2420-3010 limits assumed): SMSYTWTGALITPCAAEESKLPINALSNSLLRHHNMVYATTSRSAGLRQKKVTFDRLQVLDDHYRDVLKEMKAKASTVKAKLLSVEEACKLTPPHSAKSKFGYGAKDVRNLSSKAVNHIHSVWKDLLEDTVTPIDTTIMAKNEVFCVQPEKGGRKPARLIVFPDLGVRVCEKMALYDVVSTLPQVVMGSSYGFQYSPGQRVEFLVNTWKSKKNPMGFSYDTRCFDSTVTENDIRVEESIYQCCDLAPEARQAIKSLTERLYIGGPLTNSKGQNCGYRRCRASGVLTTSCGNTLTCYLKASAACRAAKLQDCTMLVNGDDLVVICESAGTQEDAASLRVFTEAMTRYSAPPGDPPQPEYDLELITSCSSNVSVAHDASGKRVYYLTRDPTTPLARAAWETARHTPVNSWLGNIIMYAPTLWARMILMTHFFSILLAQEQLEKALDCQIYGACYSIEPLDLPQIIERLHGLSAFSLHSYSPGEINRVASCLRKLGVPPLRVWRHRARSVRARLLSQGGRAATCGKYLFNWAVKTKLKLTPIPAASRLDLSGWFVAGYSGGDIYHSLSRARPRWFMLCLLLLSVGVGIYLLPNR
PROTOCOL_NOTES: biochemical
PROTOCOL_CONDITIONS: HCV polymerase activity, list of compounds of Example 27; read-out: IC50 (polymerase activity)
MEASURED_METRIC: IC50

COMPOUND: CCCC(=O)N(Cc1ccc(F)cc1F)c1cc(-c2ccccc2)sc1C(=O)O
RESULT: < 5 µM

COMPOUND: CN(C(=O)C1CCCCC1)c1cc(-c2ccccc2)sc1C(=O)O
RESULT: < 5 µM

COMPOUND: O=C(O)c1sc(-c2ccccc2)cc1N(C(=O)c1ccc(Cl)cc1Cl)C1CCCNC1 (stereo not shown)
RESULT: < 5 µM

COMPOUND: CC[NH+](CC)c1ncc(CN(C(=O)c2ccc(Cl)cc2Cl)c2cc(-c3ccccc3)sc2C(=O)O)s1
RESULT: < 5 µM

COMPOUND: NC1CCCCC1N(C(=O)c1ccc(Cl)cc1Cl)c1cc(-c2ccccc2)sc1C(=O)O (stereo not shown)
RESULT: < 5 µM

COMPOUND: Cc1ccc(C(=O)N(c2cc(-c3ccccc3)sc2C(=O)O)C(C)C)c(/C=N/O)c1
RESULT: 5 to 20 µM

COMPOUND: CC(C)N(C(=O)[C@@H]1CC[C@@H](C)C[C@@H]1O)c1cc(-c2ccccc2)sc1C(=O)O
RESULT: < 5 µM

COMPOUND: CC1CCC(C(=O)N(CC2CCNCC2)c2cc(-c3ccccc3)sc2C(=O)O)CC1 (stereo not shown) [Compound 544, ACETATE]
RESULT: < 5 µM

COMPOUND: O=C(O)c1sc(-c2ccccc2)cc1N(Cc1ccc(C(F)(F)F)cc1)C(=O)C1CCC1
RESULT: 5 to 20 µM

COMPOUND: COCC(=O)N(Cc1cccc(Cl)c1)c1cc(-c2ccccc2)sc1C(=O)O
RESULT: > 20 µM

COMPOUND: CC1=CCC(C(=O)N(c2cc(-c3ccccc3)sc2C(=O)O)C(C)C)C1 (stereo not shown)
RESULT: < 5 µM

COMPOUND: Cc1ccc(C(=O)N(c2cc(-c3cccc(C(F)(F)F)c3)sc2C(=O)O)C(C)C)c(O)c1
RESULT: 5 to 20 µM

COMPOUND: CC1CCC(C(=O)N(c2cc(-c3ccc(Cl)cc3)sc2C(=O)O)C(C)C)CC1 (stereo not shown)
RESULT: < 5 µM

COMPOUND: CC1CCC(C(=O)N(c2cc(-c3ccccc3)sc2C(=O)O)C2COC(C)(C)OC2)CC1 (stereo not shown)
RESULT: < 5 µM

COMPOUND: Cc1ccc(CN(C(=O)C(C)C)c2cc(-c3ccccc3)sc2C(=O)O)cc1
RESULT: 5 to 20 µM

COMPOUND: O=C(O)c1sc(-c2ccccc2)cc1N(C(=O)c1ccc(Cl)cc1Cl)C(CO)CO
RESULT: < 5 µM

Taken from patent US6881741B2.
